Values from patent US10464906B2

- protocol-notes: Solubility assessment of Form I, gravimetric, slurried 48 h in solvents/solvent mixtures
- Assay type: physicochemical
- test-context: thermodynamic from solid; Water (H2O), 15° C.; read-out: Solubility
readout-label: solubility at 48 h

Prompt line: Data request, read-out solubility at 48 h, for O=C(CCCCCCNC(=O)c1cnc(N(c2ccccc2)c2ccccc2Cl)nc1)NO [Form I]
Response line: < 1000 µg/mL

---

- protocol-notes: Solubility assessment of Form I, gravimetric, slurried 48 h in solvents/solvent mixtures
- Type: physicochemical
- test-context: organic solvent or mixture, thermodynamic from solid; Methanol (MeOH), 15° C.; read-out: Solubility
readout-label: solubility at 48 h (mg/mL)
Response body: numeric value in mg/mL, unit text excluded.

Prompt line: Look at this compound and give its reported solubility at 48 h. O=C(CCCCCCNC(=O)c1cnc(N(c2ccccc2)c2ccccc2Cl)nc1)NO [Form I]
Response line: 11
